B1: KRT13 (parent)
chain: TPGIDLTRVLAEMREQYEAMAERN

# Variants of: B1
# assay-summary: protein stability index of a GFP-peptide fusion (GPS, HEK-293T) (PSI 1-6); higher = more stable;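 note: lentivirally expressed fusions sorted by FACS into six bins by GFP to DsRed ratio, PSI derived from sequencing read proportions per bin multiplied by bin number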
# particulars: c terminus: a fixed tail appended
property-name: protein stability index
One number for each entry.

Example results:
TPGIDCTRVLAEMREQYEAMAERN [L6C]	4.79
TPGIDLTRVLAEMRESYEAMAERN [Q16S]	3.17
TPGIDLTRVLAEMREDYEAMAERN [Q16D]	4.61

Below is a list of variants. For each, state its recorded protein stability index.
1. TWGIDLTRVLAEMREQYEAMAERN [P2W]
2. TPGIDLTRVLAEMREQYEAMAGRN [E22G]
3. TPGIDLTRVLAEMREYYEAMAERN [Q16Y]
4. TPGIDLTRVLAEMREIYEAMAERN [Q16I]
5. TPGIDLTRVLAEMREQYEAWAERN [M20W]
6. TPGIDLTRVLAEMREQYWAMAERN [E18W]

A:
1: 3.75; 2: 4.02; 3: 4.01; 4: 3.38; 5: 5.32; 6: 3.62

Below is a list of variants. For each, state its recorded protein stability index.
1. TPGIDLTRVLAEMFEQYEAMAERN [R14F]
2. TPGIDLTRVCAEMREQYEAMAERN [L10C]
3. TPHIDLTRVLAEMREQYEAMAERN [G3H]
4. TSGIDLTRVLAEMREQYEAMAERN [P2S]
5. TPGIDLTRVTAEMREQYEAMAERN [L10T]
6. TPGIDTTRVLAEMREQYEAMAERN [L6T]
7. TPGIDLTRVLAEMREQYEAMANRN [E22N]

A:
3.65
4.22
3.35
3.9
5.01
5.4
4.04

Below is a list of variants. For each, state its recorded protein stability index.
1. TPDIDLTRVLAEMREQYEAMAERN [G3D]
2. TPGIDLTRVLAEMREQYEAMAERT [N24T]
3. TPGIDLTRVLATMREQYEAMAERN [E12T]
4. FPGIDLTRVLAEMREQYEAMAERN [T1F]
5. TPGIDLTRVLAEMREQYEAHAERN [M20H]
6. TPGIDLTRVLAEMREQYEAMHERN [A21H]

A:
3.1
4.22
4.09
3.27
4.32
4.07

Below is a list of variants. For each, state its recorded protein stability index.
1. TPGIDLTKVLAEMREQYEAMAERN [R8K]
2. TPGIDLTRVLAEMREQYEGMAERN [A19G]
3. TPGIILTRVLAEMREQYEAMAERN [D5I]
4. TPGIDLTRVLAEMREQYEHMAERN [A19H]

A:
1: 4.69; 2: 4.22; 3: 2.66; 4: 3.71
